Test system: hOCT2 stably transfected HEK293 cells
experiment: MTT cytotoxicity assay, hOCT2 cells
Type: cell-based, human
testSettings: ratio of TC50 pcDNA5 to TC50 hOCT2 cells
readoutType: Fold increase over pcDNA5 OCT2 (fold)
Answers are plain numbers, in fold.

// solved cases for Fold increase over pcDNA5 OCT2 follow
- molecule: "C[n+]1ccc2c(c1)[nH]c1ccccc12.[I-] [Norharmanium, 2-methyl-9H-β-carboline-2-ium, iodide]"
  Fold increase over pcDNA5 OCT2 / fold: 8.9
- molecule: "COc1ccc2c3c([nH]c2c1)C(C)=NCC3"
  Fold increase over pcDNA5 OCT2 / fold: 0.65
- molecule: "Cn1c2c(c3ccccc31)CC[N+](C)=C2.[I-]"
  Fold increase over pcDNA5 OCT2 / fold: 1.1

Next molecule, Fold increase over pcDNA5 OCT2 to be filled in.
input: # Fold increase over pcDNA5 OCT2 lookup, item C[n+]1ccc(-c2ccccc2)cc1
output: 8.9
